- SYSTEM UNDER TEST: PDE1A (Homo sapiens, UniProt P54750)
- Construct: purchased Reaction Biology Corporation, Malvern, Pa
- Sequence (P54750 whole entry): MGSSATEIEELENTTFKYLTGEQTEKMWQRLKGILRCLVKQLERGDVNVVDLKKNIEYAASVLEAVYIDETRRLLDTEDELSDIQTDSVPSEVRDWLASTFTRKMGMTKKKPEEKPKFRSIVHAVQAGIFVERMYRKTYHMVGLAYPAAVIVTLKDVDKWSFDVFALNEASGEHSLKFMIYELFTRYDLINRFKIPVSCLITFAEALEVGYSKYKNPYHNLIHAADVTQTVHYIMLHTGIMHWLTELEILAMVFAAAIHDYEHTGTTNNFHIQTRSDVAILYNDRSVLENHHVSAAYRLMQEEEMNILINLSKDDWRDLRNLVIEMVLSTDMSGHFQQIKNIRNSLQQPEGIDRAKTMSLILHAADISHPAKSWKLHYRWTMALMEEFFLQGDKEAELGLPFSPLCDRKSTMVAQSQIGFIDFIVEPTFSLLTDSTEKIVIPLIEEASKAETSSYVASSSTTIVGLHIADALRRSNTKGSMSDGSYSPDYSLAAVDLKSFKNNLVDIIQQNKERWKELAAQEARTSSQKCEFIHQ
- ASSAY DETAILS: Phosphodiesterase enzyme screening assay, PDE1A
- Format: biochemical
- RUN CONDITIONS: Table 1; ratio of IC50 values; value greater than 1 indicates greater selectivity for PDE9A2
I'd appreciate it if you could supply PDE1A selectivity (versus PDE9A2) values for the items below.

Worked examples follow.
[[record]]
compound = "Cc1cccc(CN2CC(C)C(c3nn4c(C5CCOCC5)ncc4c(=O)[nH]3)C2)c1 (single isomer, unassigned; (+))"
system_under_test = "PDE1A (Homo sapiens, UniProt P54750)"
data_value = 442

[[record]]
compound = "Cc1ccc(F)cc1-c1ncc2c(=O)[nH]c(C3CN(Cc4ccccc4)CC3C)nn12 (single isomer, unassigned; (+)) [(+)-2-((3,4-trans)-1-benzyl-4-methylpyrrolidin-3-yl)-7-(5-fl]"
system_under_test = "PDE1A (Homo sapiens, UniProt P54750)"
data_value = 247

[[record]]
compound = "Cc1ccccc1CN1CC(C)C(c2nn3c(C4CCOCC4)ncc3c(=O)[nH]2)C1 (single isomer, unassigned; (+))"
system_under_test = "PDE1A (Homo sapiens, UniProt P54750)"
data_value = 249

[[record]]
compound = "Cc1cc(F)ccc1-c1ncc2c(=O)[nH]c(C3CN(Cc4ccccc4)CC3C)nn12 (single isomer, unassigned; (+))"
system_under_test = "PDE1A (Homo sapiens, UniProt P54750)"
data_value = 257

[[record]]
compound = "CC1CN(Cc2cnccn2)CC1c1nn2c(C3CCOCC3)ncc2c(=O)[nH]1 (single isomer, unassigned; (+))"
system_under_test = "PDE1A (Homo sapiens, UniProt P54750)"
data_value = 202

[[record]]
compound = "CC1CN(Cc2ccc(F)cc2)CC1c1nn2c(C3CCC(F)(F)CC3)ncc2c(=O)[nH]1 (single isomer, unassigned; (+))"
system_under_test = "PDE1A (Homo sapiens, UniProt P54750)"
data_value = 1453


Below is a list of compounds. For each, state its recorded PDE1A selectivity (versus PDE9A2).
1. CC1CN(Cc2cccc(F)c2F)CC1c1nn2c(C3CCOCC3)ncc2c(=O)[nH]1 (single isomer, unassigned; (+))
2. CC1CN(Cc2cn3cccnc3n2)CC1c1nn2c(C3CCOCC3)ncc2c(=O)[nH]1 (single isomer, unassigned; (-))
3. CC1CN(Cc2ncccn2)CC1c1nn2c(C3CCOC3)ncc2c(=O)[nH]1 (single isomer, unassigned; (+)) [(+)-2-((3,4-trans)-4-methyl-1-(pyrimidin-2-ylmethyl)pyrrolid]
4. CC1CN(Cc2ccccn2)CC1c1nn2c(C3CCOCC3)ncc2c(=O)[nH]1 (single isomer, unassigned; (+))
5. CC1CN(Cc2ccc3ccncc3c2)CC1c1nn2c(C3CCOCC3)ncc2c(=O)[nH]1 (single isomer, unassigned; (+))
6. CC1CN(Cc2ccc(F)cc2)CC1c1nn2c(C3CCOCC3)ncc2c(=O)[nH]1 (single isomer, unassigned; (+))

Solution:
1: 159; 2: 188; 3: 28; 4: 373; 5: 223; 6: 664

Exercise: Let me know recorded PDE1A selectivity (versus PDE9A2) for Cc1ccc(CN2CC(C)C(c3nn4c(C5CCOCC5)ncc4c(=O)[nH]3)C2)cn1 (single isomer, unassigned; (+)) , thanks.
Solution: 97

====

- SYSTEM UNDER TEST: PDE9A2 (Homo sapiens, UniProt O76083)
- Construct: purchased Reaction Biology Corporation, Malvern, Pa
- Sequence (O76083 1-533 isoform O76083-2): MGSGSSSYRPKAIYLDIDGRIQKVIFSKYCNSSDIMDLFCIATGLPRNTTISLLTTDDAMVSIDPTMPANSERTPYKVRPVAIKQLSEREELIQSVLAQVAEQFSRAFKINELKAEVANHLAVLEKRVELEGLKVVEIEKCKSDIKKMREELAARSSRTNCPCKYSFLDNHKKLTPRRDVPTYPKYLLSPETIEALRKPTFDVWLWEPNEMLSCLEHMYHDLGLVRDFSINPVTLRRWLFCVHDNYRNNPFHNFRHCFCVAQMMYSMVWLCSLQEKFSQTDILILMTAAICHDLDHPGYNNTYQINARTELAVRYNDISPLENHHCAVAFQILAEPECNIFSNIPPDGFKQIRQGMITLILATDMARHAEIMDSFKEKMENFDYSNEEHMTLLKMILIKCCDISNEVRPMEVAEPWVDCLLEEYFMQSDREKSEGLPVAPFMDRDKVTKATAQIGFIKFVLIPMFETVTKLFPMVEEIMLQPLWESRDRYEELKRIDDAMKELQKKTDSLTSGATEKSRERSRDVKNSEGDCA
- ASSAY DETAILS: Phosphodiesterase enzyme screening assay, PDE9A2
- Assay type: biochemical
- RUN CONDITIONS: Table 1; 10 concentrations; 4.0 μM cGMP substrate; 1 hour at R.T.; read-out: Band (PDE9A2 IC50)
pIC50: −log10 of the molar value.
Please provide measured pIC50 for the entries that follow.

Reference set, count: 3
[[record]]
molecule = "Cc1ccc(Cl)cc1-c1ncc2c(=O)[nH]c([C@@H]3CNC[C@H]3C)nn12 (relative stereo)"
system_under_test = "PDE9A2 (Homo sapiens, UniProt O76083)"
data_value = "5.00 to 6.00"

[[record]]
molecule = "CC1CN(Cc2ccc3nccn3n2)CC1c1nn2c(C3CCOCC3)ncc2c(=O)[nH]1 (single isomer, unassigned; (+))"
system_under_test = "PDE9A2 (Homo sapiens, UniProt O76083)"
data_value = "> 6.00"

[[record]]
molecule = "CC1CN(Cc2ccc(Cl)cc2)CC1c1nn2c(C3CCC(F)(F)CC3)ncc2c(=O)[nH]1 (single isomer, unassigned; (+))"
system_under_test = "PDE9A2 (Homo sapiens, UniProt O76083)"
data_value = "> 6.00"


--- query ---
Exercise: Answer with pIC50 of Cc1ccc(CN2CC(C)C(c3nn4c(C5CCOCC5)ncc4c(=O)[nH]3)C2)cn1 (single isomer, unassigned; (+)) measured for PDE9A2 (Homo sapiens, UniProt O76083).
Solution: > 6.00

====

- SYSTEM UNDER TEST: PDE1A (Homo sapiens, UniProt P54750)
- Construct: purchased Reaction Biology Corporation, Malvern, Pa
- ASSAY DETAILS: Phosphodiesterase enzyme screening assay, PDE1A
- Assay type: biochemical
- RUN CONDITIONS: Table 1; ratio of IC50 values; value greater than 1 indicates greater selectivity for PDE9A2
Provide the recorded PDE1A selectivity (versus PDE9A2) for the entries that follow.
Give bare numbers.

Solved entries:
[[record]]
molecule = "CC1CN(Cc2ncc3ccccc3n2)CC1c1nn2c(C3CCOCC3)ncc2c(=O)[nH]1 (single isomer, unassigned; (-)) [(−)-2-((3,4-trans)-4-methyl-1-(quinazolin-2-ylmethyl)pyrroli]"
data_value = 1213

[[record]]
molecule = "CC1CN(Cc2nc3ccccn3n2)CC1c1nn2c(C3CCC(F)(F)CC3)ncc2c(=O)[nH]1 (single isomer, unassigned; (+))"
data_value = 597

[[record]]
molecule = "Cc1ccc(F)cc1-c1ncc2c(=O)[nH]c(C3CN(Cc4ncccn4)CC3C)nn12 (single isomer, unassigned; (+)) [(+)-7-(5-fluoro-2-methylphenyl)-2-((3,4-trans)-4-methyl-1-(p]"
data_value = 158


Exercise: Fill in reported PDE1A selectivity (versus PDE9A2) for this entry: Cc1cc(F)ccc1-c1ncc2c(=O)[nH]c(C3CN(Cc4ncccn4)CC3C)nn12 (single isomer, unassigned; (-))
Solution: 132

====

- SYSTEM UNDER TEST: PDE1B (Homo sapiens, UniProt Q01064)
- Construct: purchased Reaction Biology Corporation, Malvern, Pa
- Sequence (Q01064 whole entry): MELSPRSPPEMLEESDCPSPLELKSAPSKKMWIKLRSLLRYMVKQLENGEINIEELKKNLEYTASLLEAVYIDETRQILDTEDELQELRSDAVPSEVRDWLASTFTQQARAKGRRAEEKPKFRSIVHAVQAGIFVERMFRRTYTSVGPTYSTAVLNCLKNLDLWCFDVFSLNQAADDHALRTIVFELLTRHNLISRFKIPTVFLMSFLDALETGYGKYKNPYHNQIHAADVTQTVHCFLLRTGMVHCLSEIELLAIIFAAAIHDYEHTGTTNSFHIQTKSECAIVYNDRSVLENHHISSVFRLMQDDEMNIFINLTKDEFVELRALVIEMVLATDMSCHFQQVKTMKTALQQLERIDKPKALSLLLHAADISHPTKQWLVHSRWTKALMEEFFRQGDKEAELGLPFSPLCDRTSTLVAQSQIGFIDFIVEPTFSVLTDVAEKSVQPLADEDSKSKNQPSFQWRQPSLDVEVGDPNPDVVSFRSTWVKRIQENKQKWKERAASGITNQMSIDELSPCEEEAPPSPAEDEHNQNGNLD
- ASSAY DETAILS: Phosphodiesterase enzyme screening assay, PDE1B
- Type: biochemical
- RUN CONDITIONS: ratio of IC50 values, PDE1B versus PDE9A2; value greater than 1 = greater selectivity for PDE9A2
- Description: Compounds of the invention were screened against PDE1A, PDE1B, PDE2A, PDE3A, PDE3B, PDE4A1A, PDE4B1, PDE4D3, PDE5A1, PDE6C, PDE7A, PDE8A1, PDE9A2, PDE10A2 AND PDE11A isoforms of the phosphodiesterase enzyme to determine activity and overall selectivity through comparative analysis. […] Where 8-methoxy-IBMX and Zaprinast were used as reference inhibitors. […]
Label key: 1.0 means PDE1B selectivity (versus PDE9A2) under 400; 0.0 means PDE1B selectivity (versus PDE9A2) of 400 or more.

Solved cases below.
[[record]]
molecule = "CC1CN(Cc2ccn(C)n2)CC1c1nn2c(C3CCOCC3)ncc2c(=O)[nH]1 (single isomer, unassigned; (+))"
assigned_class = 0.0

[[record]]
molecule = "CC1CN(Cc2ccc(C(F)(F)F)cn2)CC1c1nn2c(C3CCOCC3)ncc2c(=O)[nH]1 (single isomer, unassigned; (+))"
assigned_class = 0.0

[[record]]
molecule = "CC1CN(Cc2ccc(F)cn2)CC1c1nn2c(C3CCOCC3)ncc2c(=O)[nH]1 (single isomer, unassigned; (+))"
assigned_class = 1.0

[[record]]
molecule = "CC1CN(Cc2ccc3nsnc3c2)CC1c1nn2c(C3CCOCC3)ncc2c(=O)[nH]1 (single isomer, unassigned; (+))"
assigned_class = 0.0

[[record]]
molecule = "CC1CN(Cc2ccsc2)CC1c1nn2c(C3CCOCC3)ncc2c(=O)[nH]1 (single isomer, unassigned; (+))"
assigned_class = 1.0


Exercise: Does the reported PDE1B selectivity (versus PDE9A2) of the following molecule sit strictly below 400? CC1CN(Cc2ccc3cccc(F)c3n2)CC1c1nn2c(C3CCOCC3)ncc2c(=O)[nH]1 (single isomer, unassigned; (+))
Solution: 1.0

Exercise: Record Cc1cccnc1CN1CC(C)C(c2nn3c(C4CCOCC4)ncc3c(=O)[nH]2)C1 (single isomer, unassigned; (+)) : is its PDE1B selectivity (versus PDE9A2) strictly below 400?
Solution: 1.0

Exercise: Lab note: PDE1B selectivity (versus PDE9A2) threshold 400. Does this molecule come in strictly under it? CC1CN(Cc2cnn(C)c2)CC1c1nn2c(C3CCOCC3)ncc2c(=O)[nH]1 (single isomer, unassigned; (+))
Solution: 0.0

Exercise: State whether 400 exceeds PDE1B selectivity (versus PDE9A2) recorded for CC1CN(Cc2ccnn2C)CC1c1nn2c(C3CCOCC3)ncc2c(=O)[nH]1 (single isomer, unassigned; (+)) .
Solution: 1.0

Each recorded value in this set is attributed to patent US9969742B2.
